B1: library; a variant is named by its letters at N, in order (parent)
chain: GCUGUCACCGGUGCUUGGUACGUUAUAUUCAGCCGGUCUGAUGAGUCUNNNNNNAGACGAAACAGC

Variants of: B1
protocol_details: normalized RNA/DNA level with ligand (relative to sTRSVctl = 100) (log10 (% of sTRSVctl)); HEK293T overexpressing SLC46A1; ligand concentration (+) RNA-Seq: 6 mM; higher = less ribozyme self-cleavage, higher mRNA level
run_parameters: with (6R,S)-folinic acid; ligand present: yes
Please go through the items and note down their normalized RNA/DNA level with ligand (log10).
// return just the number, without any unit appended

[ask] Given the entry UAGACC , report its measured normalized RNA/DNA level with ligand (log10).
[reply] 2.01

[ask] Given the entry CUGUGU , report its measured normalized RNA/DNA level with ligand (log10).
[reply] 2.01

[ask] Given the entry UUCACU , report its measured normalized RNA/DNA level with ligand (log10).
[reply] 2.04

[ask] Given the entry CCACCC , report its measured normalized RNA/DNA level with ligand (log10).
[reply] 1.99

[ask] Given the entry ACGUGA , report its measured normalized RNA/DNA level with ligand (log10).
[reply] 2.03

[ask] Given the entry ACACUG , report its measured normalized RNA/DNA level with ligand (log10).
[reply] 2.03

[ask] Given the entry UUCGAU , report its measured normalized RNA/DNA level with ligand (log10).
[reply] 2.02

[ask] Given the entry UACCCA , report its measured normalized RNA/DNA level with ligand (log10).
[reply] 2.02

[ask] Given the entry GUGAAA , report its measured normalized RNA/DNA level with ligand (log10).
[reply] 1.98

[ask] Given the entry GCGACA , report its measured normalized RNA/DNA level with ligand (log10).
[reply] 2.05

[ask] Given the entry GAUCCG , report its measured normalized RNA/DNA level with ligand (log10).
[reply] 2.05

[ask] Given the entry UGGGAU , report its measured normalized RNA/DNA level with ligand (log10).
[reply] 2

[ask] Given the entry CCUACC , report its measured normalized RNA/DNA level with ligand (log10).
[reply] 2.04

[ask] Given the entry AGAUGU , report its measured normalized RNA/DNA level with ligand (log10).
[reply] 2.02

[ask] Given the entry AGCCUU , report its measured normalized RNA/DNA level with ligand (log10).
[reply] 2.02

[ask] Given the entry CGCCCG , report its measured normalized RNA/DNA level with ligand (log10).
[reply] 2.03

[ask] Given the entry UUCAUU , report its measured normalized RNA/DNA level with ligand (log10).
[reply] 2.01

[ask] Given the entry UAGCUC , report its measured normalized RNA/DNA level with ligand (log10).
[reply] 2.04

[ask] Given the entry UCUCCU , report its measured normalized RNA/DNA level with ligand (log10).
[reply] 2.02

[ask] Given the entry UAGCCU , report its measured normalized RNA/DNA level with ligand (log10).
[reply] 2.04

[ask] Given the entry ACUAUU , report its measured normalized RNA/DNA level with ligand (log10).
[reply] 2.02

[ask] Given the entry UCCAUA , report its measured normalized RNA/DNA level with ligand (log10).
[reply] 1.98
